conditionDetails: in n-pentanol, 308.15 K
measurementName: solubility (mole fraction)

// fetch solubility (mole fraction) given entry CCCCN(CCCC)CC(O)c1cc(Cl)cc2c1-c1ccc(Cl)cc1/C2=C/c1ccc(Cl)cc1 (stereo unspecified)
0.0013

* * *

conditionDetails: in n-octanol, 313.15 K
measurementName: solubility (mole fraction)

// fetch solubility (mole fraction) given entry CCCCN(CCCC)CC(O)c1cc(Cl)cc2c1-c1ccc(Cl)cc1/C2=C/c1ccc(Cl)cc1 (stereo unspecified)
0.00298

* * *

conditionDetails: in n-propyl acetate, 283.15 K
measurementName: solubility (mole fraction)
Quick one: just the number, no unit, thanks!

// fetch solubility (mole fraction) given entry CCCCN(CCCC)CC(O)c1cc(Cl)cc2c1-c1ccc(Cl)cc1/C2=C/c1ccc(Cl)cc1 (stereo unspecified)
0.00365

* * *

conditionDetails: in n-octanol, 308.15 K
measurementName: solubility (mole fraction)
Quick one: just the number, no unit, thanks!

// fetch solubility (mole fraction) given entry CCCCN(CCCC)CC(O)c1cc(Cl)cc2c1-c1ccc(Cl)cc1/C2=C/c1ccc(Cl)cc1 (stereo unspecified)
0.00221

* * *

conditionDetails: in ethyl acetate, 323.15 K
measurementName: solubility (mole fraction)
Quick one: just the number, no unit, thanks!

// fetch solubility (mole fraction) given entry CCCCN(CCCC)CC(O)c1cc(Cl)cc2c1-c1ccc(Cl)cc1/C2=C/c1ccc(Cl)cc1 (stereo unspecified)
0.0201

* * *

conditionDetails: in n-octanol, 318.15 K
measurementName: solubility (mole fraction)
Quick one: just the number, no unit, thanks!

// fetch solubility (mole fraction) given entry CCCCN(CCCC)CC(O)c1cc(Cl)cc2c1-c1ccc(Cl)cc1/C2=C/c1ccc(Cl)cc1 (stereo unspecified)
0.00385

* * *

conditionDetails: in n-heptanol, 298.15 K
measurementName: solubility (mole fraction)
Quick one: just the number, no unit, thanks!

// fetch solubility (mole fraction) given entry CCCCN(CCCC)CC(O)c1cc(Cl)cc2c1-c1ccc(Cl)cc1/C2=C/c1ccc(Cl)cc1 (stereo unspecified)
0.0011

* * *

conditionDetails: in n-propanol, 283.15 K
measurementName: solubility (mole fraction)

// fetch solubility (mole fraction) given entry CCCCN(CCCC)CC(O)c1cc(Cl)cc2c1-c1ccc(Cl)cc1/C2=C/c1ccc(Cl)cc1 (stereo unspecified)
0.000107

* * *

conditionDetails: in n-heptanol, 288.15 K
measurementName: solubility (mole fraction)
Quick one: just the number, no unit, thanks!

// fetch solubility (mole fraction) given entry CCCCN(CCCC)CC(O)c1cc(Cl)cc2c1-c1ccc(Cl)cc1/C2=C/c1ccc(Cl)cc1 (stereo unspecified)
0.000586

* * *

conditionDetails: in methanol, 323.15 K
measurementName: solubility (mole fraction)
Quick one: just the number, no unit, thanks!

// fetch solubility (mole fraction) given entry CCCCN(CCCC)CC(O)c1cc(Cl)cc2c1-c1ccc(Cl)cc1/C2=C/c1ccc(Cl)cc1 (stereo unspecified)
0.000136

* * *

conditionDetails: in n-heptanol, 318.15 K
measurementName: solubility (mole fraction)
Quick one: just the number, no unit, thanks!

// fetch solubility (mole fraction) given entry CCCCN(CCCC)CC(O)c1cc(Cl)cc2c1-c1ccc(Cl)cc1/C2=C/c1ccc(Cl)cc1 (stereo unspecified)
0.00339

* * *

conditionDetails: in n-pentyl acetate, 303.15 K
measurementName: solubility (mole fraction)
Quick one: just the number, no unit, thanks!

// fetch solubility (mole fraction) given entry CCCCN(CCCC)CC(O)c1cc(Cl)cc2c1-c1ccc(Cl)cc1/C2=C/c1ccc(Cl)cc1 (stereo unspecified)
0.0168

* * *

conditionDetails: in methyl acetate, 313.15 K
measurementName: solubility (mole fraction)
Quick one: just the number, no unit, thanks!

// fetch solubility (mole fraction) given entry CCCCN(CCCC)CC(O)c1cc(Cl)cc2c1-c1ccc(Cl)cc1/C2=C/c1ccc(Cl)cc1 (stereo unspecified)
0.00669

* * *

conditionDetails: in n-butyl acetate, 288.15 K
measurementName: solubility (mole fraction)

// fetch solubility (mole fraction) given entry CCCCN(CCCC)CC(O)c1cc(Cl)cc2c1-c1ccc(Cl)cc1/C2=C/c1ccc(Cl)cc1 (stereo unspecified)
0.00672

* * *

conditionDetails: in methanol, 318.15 K
measurementName: solubility (mole fraction)
Quick one: just the number, no unit, thanks!

// fetch solubility (mole fraction) given entry CCCCN(CCCC)CC(O)c1cc(Cl)cc2c1-c1ccc(Cl)cc1/C2=C/c1ccc(Cl)cc1 (stereo unspecified)
0.000105

* * *

conditionDetails: in methanol, 303.15 K
measurementName: solubility (mole fraction)
Quick one: just the number, no unit, thanks!

// fetch solubility (mole fraction) given entry CCCCN(CCCC)CC(O)c1cc(Cl)cc2c1-c1ccc(Cl)cc1/C2=C/c1ccc(Cl)cc1 (stereo unspecified)
4.95e-05

* * *

conditionDetails: in n-propyl acetate, 278.15 K
measurementName: solubility (mole fraction)

// fetch solubility (mole fraction) given entry CCCCN(CCCC)CC(O)c1cc(Cl)cc2c1-c1ccc(Cl)cc1/C2=C/c1ccc(Cl)cc1 (stereo unspecified)
0.00281

* * *

conditionDetails: in n-octanol, 288.15 K
measurementName: solubility (mole fraction)
Quick one: just the number, no unit, thanks!

// fetch solubility (mole fraction) given entry CCCCN(CCCC)CC(O)c1cc(Cl)cc2c1-c1ccc(Cl)cc1/C2=C/c1ccc(Cl)cc1 (stereo unspecified)
0.00073

* * *

conditionDetails: in n-propanol, 308.15 K
measurementName: solubility (mole fraction)
Quick one: just the number, no unit, thanks!

// fetch solubility (mole fraction) given entry CCCCN(CCCC)CC(O)c1cc(Cl)cc2c1-c1ccc(Cl)cc1/C2=C/c1ccc(Cl)cc1 (stereo unspecified)
0.000502

* * *

conditionDetails: in n-butyl acetate, 323.15 K
measurementName: solubility (mole fraction)
Quick one: just the number, no unit, thanks!

// fetch solubility (mole fraction) given entry CCCCN(CCCC)CC(O)c1cc(Cl)cc2c1-c1ccc(Cl)cc1/C2=C/c1ccc(Cl)cc1 (stereo unspecified)
0.0359

* * *

conditionDetails: in ethanol, 303.15 K
measurementName: solubility (mole fraction)
Quick one: just the number, no unit, thanks!

// fetch solubility (mole fraction) given entry CCCCN(CCCC)CC(O)c1cc(Cl)cc2c1-c1ccc(Cl)cc1/C2=C/c1ccc(Cl)cc1 (stereo unspecified)
0.000213

* * *

conditionDetails: in n-butyl acetate, 278.15 K
measurementName: solubility (mole fraction)
Quick one: just the number, no unit, thanks!

// fetch solubility (mole fraction) given entry CCCCN(CCCC)CC(O)c1cc(Cl)cc2c1-c1ccc(Cl)cc1/C2=C/c1ccc(Cl)cc1 (stereo unspecified)
0.00423

* * *

conditionDetails: in n-pentanol, 298.15 K
measurementName: solubility (mole fraction)
Quick one: just the number, no unit, thanks!

// fetch solubility (mole fraction) given entry CCCCN(CCCC)CC(O)c1cc(Cl)cc2c1-c1ccc(Cl)cc1/C2=C/c1ccc(Cl)cc1 (stereo unspecified)
0.000745

* * *

conditionDetails: in n-heptanol, 313.15 K
measurementName: solubility (mole fraction)
Quick one: just the number, no unit, thanks!

// fetch solubility (mole fraction) given entry CCCCN(CCCC)CC(O)c1cc(Cl)cc2c1-c1ccc(Cl)cc1/C2=C/c1ccc(Cl)cc1 (stereo unspecified)
0.00245

* * *

conditionDetails: in n-pentanol, 293.15 K
measurementName: solubility (mole fraction)
Quick one: just the number, no unit, thanks!

// fetch solubility (mole fraction) given entry CCCCN(CCCC)CC(O)c1cc(Cl)cc2c1-c1ccc(Cl)cc1/C2=C/c1ccc(Cl)cc1 (stereo unspecified)
0.000555

* * *

conditionDetails: in n-pentanol, 288.15 K
measurementName: solubility (mole fraction)
Quick one: just the number, no unit, thanks!

// fetch solubility (mole fraction) given entry CCCCN(CCCC)CC(O)c1cc(Cl)cc2c1-c1ccc(Cl)cc1/C2=C/c1ccc(Cl)cc1 (stereo unspecified)
0.000423

* * *

conditionDetails: in methyl acetate, 283.15 K
measurementName: solubility (mole fraction)
Quick one: just the number, no unit, thanks!

// fetch solubility (mole fraction) given entry CCCCN(CCCC)CC(O)c1cc(Cl)cc2c1-c1ccc(Cl)cc1/C2=C/c1ccc(Cl)cc1 (stereo unspecified)
0.000903

* * *

conditionDetails: in methyl acetate, 308.15 K
measurementName: solubility (mole fraction)
Quick one: just the number, no unit, thanks!

// fetch solubility (mole fraction) given entry CCCCN(CCCC)CC(O)c1cc(Cl)cc2c1-c1ccc(Cl)cc1/C2=C/c1ccc(Cl)cc1 (stereo unspecified)
0.00495

* * *

conditionDetails: in ethyl acetate, 303.15 K
measurementName: solubility (mole fraction)
Quick one: just the number, no unit, thanks!

// fetch solubility (mole fraction) given entry CCCCN(CCCC)CC(O)c1cc(Cl)cc2c1-c1ccc(Cl)cc1/C2=C/c1ccc(Cl)cc1 (stereo unspecified)
0.0069

* * *

conditionDetails: in n-propyl acetate, 303.15 K
measurementName: solubility (mole fraction)
Quick one: just the number, no unit, thanks!

// fetch solubility (mole fraction) given entry CCCCN(CCCC)CC(O)c1cc(Cl)cc2c1-c1ccc(Cl)cc1/C2=C/c1ccc(Cl)cc1 (stereo unspecified)
0.0109
